# Target Under Test: BCL-2 (Homo sapiens, UniProt P10415)
# Sequence (P10415 whole entry): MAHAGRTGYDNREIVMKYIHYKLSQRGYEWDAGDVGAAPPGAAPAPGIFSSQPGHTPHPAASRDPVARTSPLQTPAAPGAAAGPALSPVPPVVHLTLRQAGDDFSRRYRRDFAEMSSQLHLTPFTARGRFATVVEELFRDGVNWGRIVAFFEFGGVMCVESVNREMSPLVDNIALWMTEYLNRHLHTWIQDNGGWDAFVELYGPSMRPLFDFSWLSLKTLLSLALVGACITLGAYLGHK
# Procedure Summary: HTRF BCL-2/BAK assay (Cisbio)
# Condition Set: recombinant human Tag1-BCL-2 2 nM, Tag2-BAK 10 nM
Measured Property: IC50

Recorded IC50, per entry:
>>> observed("O=C(NS(=O)(=O)c1ccc(NCC2CCOCC2)c([N+](=O)[O-])c1)c1ccc(N2CCN(C3CCCCc4c(Cl)cccc43)CC2)cc1Oc1cnc2[nH]ccc2c1 (stereo not drawn)")
"< 20 nM"
>>> observed("CC(C)(C)OC(=O)N1CCC2(CC1)CC(CNc1ccc(S(=O)(=O)NC(=O)c3ccc(N4CCN([C@@H]5CCCCc6c(Cl)cccc65)CC4)cc3Oc3cnc4[nH]ccc4c3)cc1[N+](=O)[O-])C2")
"< 20 nM"

Below: the item to evaluate.
Returns the measured IC50 for the input compound. Input: O=C(NS(=O)(=O)c1cccc([N+](=O)[O-])c1)c1ccc(N2CCN(C3CCCc4cccc(-c5cccc(Cl)c5)c43)CC2)cc1Oc1cnc2[nH]ccc2c1 (stereo not drawn)
200 to 2000 nM

Provenance of the data: patent US20240239792A1
